system: HCV NS3 protease domain (Hepatitis C virus genotype 1b)
Construct: The first 181 amino acids of NS3 (residues 1027-1207 of the viral polyprotein); hexa-histidine (C); made in house; host or cells: E. coli BL21/DE3 pLysS
assay-summary: biochemical
condition-context: Enzyme Assay 1 (HCV NS3 Protease Domain Peptide Cleavage Assay) activity, apparent Ki class
pKi: −log10 of the molar value.
observable: pKi

{"compound": "CCC[C@H](NC(=O)[C@@H]1C[C@]2(CC(c3ccc(Br)o3)=NO2)CN1C(=O)[C@@H](NC(=O)CC1CCCCC1)C(C)(C)C)C(=O)C(=O)NC1CC1", "system": "HCV NS3 protease domain (Hepatitis C virus genotype 1b)", "observable": "pKi", "result": "6.30 to 7.00"}
{"compound": "CCC[C@H](NC(=O)[C@@H]1C[C@]2(CC(c3cccc(Cl)c3)=NO2)CN1C(=O)CN1C(=O)OC[C@@H]1c1ccccc1)C(=O)C(=O)NC1CC1", "system": "HCV NS3 protease domain (Hepatitis C virus genotype 1b)", "observable": "pKi", "result": "< 6.30"}
{"compound": "CCC[C@H](NC(=O)[C@@H]1C[C@]2(CC(c3cccc(Cl)c3)=NO2)CN1C(=O)[C@@H](NC(=O)NC1CC1)C(C)(C)C)C(=O)C(=O)NC1CC1", "system": "HCV NS3 protease domain (Hepatitis C virus genotype 1b)", "observable": "pKi", "result": "6.30 to 7.00"}
{"compound": "CC(C)(C)OC(=O)N[C@H]1CCCCC/C=C\\[C@@H]2C[C@@]2(C(=O)NS(=O)(=O)C2CC2)NC(=O)[C@@H]2C[C@]3(CC(C(=O)c4ccccc4)=NO3)CN2C1=O", "system": "HCV NS3 protease domain (Hepatitis C virus genotype 1b)", "observable": "pKi", "result": "> 7.00"}
{"compound": "CCC[C@H](NC(=O)[C@@H]1C[C@]2(CC(c3ccccc3)=NO2)CN1C(=O)[C@@H](NC(=O)CC1CCCCC1)C(C)(C)C)C(=O)C(=O)NC1CC1", "system": "HCV NS3 protease domain (Hepatitis C virus genotype 1b)", "observable": "pKi", "result": "6.30 to 7.00"}
{"compound": "CCC[C@H](NC(=O)[C@@H]1C[C@]2(CC(c3cccc(Cl)c3)=NO2)CN1C(=O)[C@@H](NC(=O)NC1CCN(C(=O)OCc2ccccc2)CC1)C(C)(C)C)C(=O)C(=O)NC1CC1", "system": "HCV NS3 protease domain (Hepatitis C virus genotype 1b)", "observable": "pKi", "result": "6.30 to 7.00"}
{"compound": "CCC[C@H](NC(=O)[C@@H]1C[C@]2(CC(c3cccc(Cl)c3)=NO2)CN1C(=O)[C@@H](NC(=O)CC(C)(C)C)C(C)(C)C)C(=O)C(=O)NC1CC1", "system": "HCV NS3 protease domain (Hepatitis C virus genotype 1b)", "observable": "pKi", "result": "6.30 to 7.00"}
{"compound": "CCC[C@H](NC(=O)[C@@H]1C[C@]2(CC(c3cccc(Cl)c3)=NO2)CN1C(=O)[C@@H](NC(=O)CC1CC2CCC1C2)C(C)(C)C)C(=O)C(=O)NC1CC1 (some centres unmarked)", "system": "HCV NS3 protease domain (Hepatitis C virus genotype 1b)", "observable": "pKi", "result": "6.30 to 7.00"}
{"compound": "CCC[C@H](NC(=O)[C@@H]1C[C@]2(CC(c3cccc(Cl)c3)=NO2)CN1C(=O)[C@@H](NC(=O)c1cc(NC(C)=O)sc1C(C)=O)C(C)(C)C)C(=O)C(=O)NC1CC1", "system": "HCV NS3 protease domain (Hepatitis C virus genotype 1b)", "observable": "pKi", "result": "< 6.30"}
{"compound": "CCC[C@H](NC(=O)[C@@H]1C[C@]2(CC(c3cccc(Cl)c3)=NO2)CN1C(=O)C(C)N1Cc2ccccc2C1=O)C(=O)C(=O)NC1CC1 (some centres unmarked)", "system": "HCV NS3 protease domain (Hepatitis C virus genotype 1b)", "observable": "pKi", "result": "< 6.30"}
{"compound": "CCC[C@H](NC(=O)[C@@H]1C[C@]2(CC(c3cccc(Cl)c3)=NO2)CN1C(=O)[C@@H](NC(=O)CC1CCCCC1)C(C)(C)C)C(=O)C(=O)N(C)CCC", "system": "HCV NS3 protease domain (Hepatitis C virus genotype 1b)", "observable": "pKi", "result": "< 6.30"}

* * *

system: full-length hepatitis C viral protein NS3•4A (Hepatitis C virus genotype 1a, UniProt P27958)
Construct: hexa-histidine (N); made in house; host or cells: Sf9 insect cells (baculovirus, pVL1392)
assay-summary: biochemical
Set-up: species or system HCV sub-type strain 1a
condition-context: Enzyme Assay 2 (HCV NS3 Peptide Cleavage Assay) activity, apparent Ki class
observable: Ki

{"entry-smiles": "CCC[C@H](NC(=O)[C@@H]1C[C@]2(CC(c3cccc(Cl)c3)=NO2)CN1C(=O)[C@H](Cc1csc2ccccc12)NC(=O)CC1CCCCC1)C(=O)C(=O)NC1CC1", "observable": "Ki", "result": "> 500 nM"}
{"entry-smiles": "CN(C)C(=O)C(=O)[C@H](CC1CCC1)NC(=O)[C@@H]1C[C@]2(CC(c3cccc(Cl)c3)=NO2)CN1C(=O)[C@@H](NC(=O)CC1CCCCC1)C(C)(C)C", "observable": "Ki", "result": "> 500 nM"}
{"entry-smiles": "CCC[C@H](NC(=O)[C@@H]1C[C@]2(CC(c3cccc(Cl)c3)=NO2)CN1C(=O)CCNS(=O)(=O)c1ccc(NC(C)=O)cc1)C(=O)C(=O)NC1CC1", "observable": "Ki", "result": "> 500 nM"}

* * *

system: full-length hepatitis C viral protein NS3•4A (Hepatitis C virus genotype 1a, UniProt P27958)
Construct: hexa-histidine (N); made in house; host or cells: Sf9 insect cells (baculovirus, pVL1392)
assay-summary: biochemical
Set-up: species or system HCV sub-type strain 1a
condition-context: Enzyme Assay 2, HCV NS3 Peptide Cleavage Assay, apparent Ki

{"compound": "CNC(=O)C(=O)[C@H](CC1CC1)NC(=O)[C@@H]1C[C@]2(CC(c3cccc(Cl)c3)=NO2)CN1C(=O)[C@@H](NC(=O)C1CC1c1ccn(C)n1)C(C)(C)C (some centres unmarked)", "Ki": "< 0.1 µM"}
{"compound": "CNC(=O)C(=O)[C@H](CC1CC1)NC(=O)[C@@H]1C[C@]2(CC(c3cccc(Cl)c3)=NO2)CN1C(=O)[C@@H](NC(=O)[C@@H]1C[C@H]1c1c[nH]cn1)C(C)(C)C", "Ki": "0.1 to 0.5 µM"}
{"compound": "CCNC(=O)C(=O)[C@H](CC1CC1)NC(=O)[C@@H]1C[C@]2(CC(c3cc(C)c(OC)c(Cl)c3)=NO2)CN1C(=O)[C@@H](NC(=O)[C@@H]1C[C@H]1c1ccccc1)C(C)(C)C", "Ki": "< 0.1 µM"}
{"compound": "CCC[C@H](NC(=O)[C@@H]1C[C@]2(CC(c3cccc(Cl)c3)=NO2)CN1C(=O)[C@@H](NC(=O)[C@H]1C[C@@H]1C1CCCCC1)C(C)(C)C)C(=O)C(N)=O", "Ki": "< 0.1 µM"}
{"compound": "CNC(=O)C(=O)[C@H](CC1CC1)NC(=O)[C@@H]1C[C@]2(CC(c3cccc(Cl)c3)=NO2)CN1C(=O)[C@@H](NC(=O)[C@@H]1CC12CCOCC2)C(C)(C)C", "Ki": "< 0.1 µM"}
{"compound": "CCC[C@H](NC(=O)[C@@H]1C[C@]2(CC(c3cccc(Cl)c3)=NO2)CN1C(=O)[C@@H](NC(=O)[C@H]1C[C@@H]1C1CCCCC1)C(C)(C)C)C(=O)C(=O)NC", "Ki": "0.1 to 0.5 µM"}
{"compound": "CCOc1cc(OC)c(C2=NO[C@]3(C2)C[C@@H](C(=O)N[C@@H](CC2CC2)C(=O)C(=O)NC)N(C(=O)[C@@H](NC(=O)OC2CCCC2)C(C)(C)C)C3)cc1Cl", "Ki": "< 0.1 µM"}
{"compound": "CCC[C@H](NC(=O)[C@@H]1C[C@]2(CC(c3cc(C)c(OCC)c(C)c3)=NO2)CN1C(=O)[C@@H](NC(=O)[C@H]1C[C@@H]1c1ccccn1)C(C)(C)C)C(=O)C(=O)NC1CC1", "Ki": "0.1 to 0.5 µM"}
{"compound": "CCC[C@H](NC(=O)[C@@H]1C[C@]2(CC(c3cc(Cl)c(OC)cc3OC)=NO2)CN1C(=O)[C@@H](NC(=O)[C@@H]1CC1c1ccccc1)C(C)(C)C)C(=O)C(N)=O (some centres unmarked)", "Ki": "< 0.1 µM"}
{"compound": "CCC[C@H](NC(=O)[C@@H]1C[C@]2(CC(c3cc(C)c(OCC)c(C)c3)=NO2)CN1C(=O)[C@@H](NC(=O)[C@H]1C[C@@H]1c1ccc(F)cc1)C(C)(C)C)C(=O)C(=O)NC1CC1", "Ki": "< 0.1 µM"}
{"compound": "CCC[C@H](NC(=O)[C@@H]1C[C@]2(CC(c3cccc(Cl)c3)=NO2)CN1C(=O)[C@@H](NC(=O)[C@@H]1C[C@H]1c1c[nH]cn1)C(C)(C)C)C(=O)C(=O)NC1CC1", "Ki": "0.1 to 0.5 µM"}
{"compound": "CCC[C@H](NC(=O)[C@@H]1C[C@]2(CC(c3cc(C)c(OCC)c(C)c3)=NO2)CN1C(=O)[C@@H](NC(=O)[C@@H]1C[C@H]1C1CCCCC1)C(C)(C)C)C(=O)C(=O)NC1CC1", "Ki": "< 0.1 µM"}
{"compound": "CNC(=O)C(=O)[C@H](CC1CC1)NC(=O)[C@@H]1C[C@]2(CC(c3cccc(Cl)c3)=NO2)CN1C(=O)[C@@H](NC(=O)[C@@H]1C[C@H]1c1cccnc1)C(C)(C)C", "Ki": "0.1 to 0.5 µM"}
{"compound": "CNC(=O)C(=O)[C@H](CC1CC1)NC(=O)[C@@H]1C[C@]2(CC(c3cccc(Cl)c3)=NO2)CN1C(=O)[C@@H](NC(=O)OC1CCC1)C(C)(C)C", "Ki": "< 0.1 µM"}
{"compound": "CCC[C@H](NC(=O)[C@@H]1C[C@]2(CC(c3cccc(Cl)c3)=NO2)CN1C(=O)[C@@H](NC(=O)[C@@H]1CC12CCOCC2)C(C)(C)C)C(=O)C(=O)NC", "Ki": "0.1 to 0.5 µM"}
{"compound": "CCC[C@H](NC(=O)[C@@H]1C[C@]2(CC(c3cccc(Cl)c3)=NO2)CN1C(=O)[C@@H](NC(=O)[C@@H]1CC12CCOCC2)C(C)(C)C)C(=O)C(=O)NC1CC1", "Ki": "< 0.1 µM"}
{"compound": "CNC(=O)C(=O)[C@H](CC1CC1)NC(=O)[C@@H]1C[C@]2(CC(N3Cc4ccccc4C3)=NO2)CN1C(=O)[C@@H](NC(=O)OC1CCCC1)C(C)(C)C", "Ki": "0.1 to 0.5 µM"}
{"compound": "CCOc1cc(OC)c(C2=NO[C@]3(C2)C[C@@H](C(=O)N[C@@H](CC2CC2)C(=O)C(=O)NC)N(C(=O)[C@@H](NC(=O)OC(C)(C)C)C(C)(C)C)C3)cc1Cl", "Ki": "< 0.1 µM"}
{"compound": "CCC[C@H](NC(=O)[C@@H]1C[C@]2(CC(c3cccc(Cl)c3)=NO2)CN1C(=O)[C@@H](NC(=O)[C@H]1CC1c1ccccc1)C(C)(C)OC)C(=O)C(=O)NC1CC1 (some centres unmarked)", "Ki": "< 0.1 µM"}
{"compound": "CNC(=O)C(=O)[C@H](CC1CC1)NC(=O)[C@@H]1C[C@]2(CC(c3cccc(Cl)c3)=NO2)CN1C(=O)[C@@H](NC(=O)[C@H]1C[C@H]1c1ccccc1)C(C)(C)C", "Ki": "0.1 to 0.5 µM"}
